Test system: N-acetyl glycyl-lysine methyl ester
Assay: Inhibition of cross-linking of N-acetyl glycyl-lysine methyl ester in the presence of ribose (fluorescence)
Format: biochemical
Settings: 0.5 M sodium phosphate buffer pH 7.4, 37° C., 16-24 hours; read-out: IC50 inhibition of cross-linking of N-acetylglycyllysine methyl ester with ribose
Procedure: The following method was used to evaluate the ability of the compounds of the present invention to inhibit the cross-linking of N-acetyl glycyl-lysine methyl ester in the presence of ribose. N-acetylglycyllysine methyl ester (DP in formula below) […] and incubated at 37° C. for 16-24 hours. At the end of the incubation period reaction mixture is diluted with 3 ml distilled water and the fluorescence is read using an excitation wavelength of 350 nm and emission wavelength of 100 nm. […]
Where a name gives a salt, the structure may show the parent alone.
READOUT_KIND: IC50

INSERT INTO results (compound, reported_result) VALUES
  ('Cc1nnc(NN)n(N)c1=O [hydrochloride]', '< 3 mM'),
  ('CCCCc1nnc(N)n(N)c1=O', '1.6 mM'),
  ('COc1cccc(C(=O)C=C2NN=C(N)N(N)C2=O)c1', '> 10 mM');

// switching to the query compound
Task: Query IC50 on N-acetyl glycyl-lysine methyl ester for Cl.NNc1nnc(Cc2ccc(O)cc2)c(=O)n1N [hydrochloride]
Output: > 1 mM
